assay target: cAMP-dependent protein kinase catalytic subunit alpha (Homo sapiens); note: in the data inactive means no Kd found up to 30 µM
The source made the active and inactive calls.
Labels: active, inactive

# smiles repr, assay target, group
rows = [
    ("C=CCN(/C=C1/C(=O)O[C@H](COC)[C@@]2(C)C1=C(O)C(=O)C1=C2[C@H](OC(C)=O)C[C@]2(C)C(=O)CC[C@@H]12)CC=C", "cAMP-dependent protein kinase catalytic subunit alpha (Homo sapiens)", "inactive"),
    ("FC(F)(F)c1ccc(CNc2ccc(Cc3c[nH]c4ncc(Cl)cc34)cn2)cn1", "cAMP-dependent protein kinase catalytic subunit alpha (Homo sapiens)", "inactive"),
    ("CN(c1ncccc1CNc1nc(Nc2ccc3c(c2)CC(=O)N3)ncc1C(F)(F)F)S(C)(=O)=O", "cAMP-dependent protein kinase catalytic subunit alpha (Homo sapiens)", "inactive"),
    ("CC[C@@](C)(Nc1ccnc(-c2c[nH]c3ncccc23)n1)C(=O)NCC(F)(F)F", "cAMP-dependent protein kinase catalytic subunit alpha (Homo sapiens)", "inactive"),
    ("CCN1CCN(Cc2ccc(Nc3ncc(F)c(-c4cc(F)c5nc(C)n(C(C)C)c5c4)n3)nc2)CC1", "cAMP-dependent protein kinase catalytic subunit alpha (Homo sapiens)", "inactive"),
    ("O[C@H]1CC[C@H](Nc2ncc3nc(Nc4c(F)cc(F)cc4F)n([C@H]4CCOC4)c3n2)CC1", "cAMP-dependent protein kinase catalytic subunit alpha (Homo sapiens)", "inactive"),
    ("CCc1cc2c(cc1N1CCC(N3CCOCC3)CC1)C(C)(C)c1[nH]c3cc(C#N)ccc3c1C2=O", "cAMP-dependent protein kinase catalytic subunit alpha (Homo sapiens)", "inactive"),
    ("COCCN1CCN(Cc2ccc(-c3n[nH]c4c3C(=O)c3c(NC(=O)NN5CCOCC5)cccc3-4)cc2)CC1", "cAMP-dependent protein kinase catalytic subunit alpha (Homo sapiens)", "inactive"),
    ("COc1cccc(Nc2ncnn3ccc(CN4CC[C@@H](N)[C@H](O)C4)c23)c1", "cAMP-dependent protein kinase catalytic subunit alpha (Homo sapiens)", "active"),
]

// data source = ChEMBL document CHEMBL3991601
